assay: Cytotoxicity, methyltetrazolium (MTT) assay on MDCK cell monolayer; type: cell-based; settings: dog; MDCK cells, 72 h, MTT; read-out: CC50, cytotoxic concentration; the concentration resulting in 50% death of cells
Strictly below 400 µM in CC50 at 72 h: true. Otherwise: false.

Solved entries:
Cc1nnc2n1NC/C(=C/c1ccccc1)S2 : false
CCCc1nnc2n1N=C/C(=C/c1ccccc1)S2 : false
CCc1nnc2n1N=C/C(=C/c1ccccc1)S2 : false
C(=C1\CNn2cnnc2S1)/c1ccccc1 : false
Sc1nncn1NCC#Cc1ccccc1 : false

Say whether its CC50 at 72 h is strictly beneath 400 µM. Entry: Cc1nnc(S)n1NCC#Cc1ccccc1 false

Subsequent entry: CCCc1nnc(S)n1NCC#Cc1ccccc1 true

Subsequent entry: Cc1nnc2n1N=C/C(=C/c1ccccc1)S2 false

Subsequent entry: CCc1nnc2n1NC/C(=C/c1ccccc1)S2 false

Subsequent entry: C1=Nn2cnnc2S/C1=C\c1ccccc1 false

Subsequent entry: CC(N)C12CC3CC(CC(C3)C1)C2 (stereo not drawn) [Rimantadine, reference compound] true

Subsequent entry: Cc1nnc2n1NCC=C(c1ccccc1)S2 [Compound 10b] false

---

assay: Cytotoxicity, methyltetrazolium (MTT) assay on MDCK cell monolayer; type: cell-based; details: dog; MDCK cells, 72 h, MTT; read-out: CC50, cytotoxic concentration; the concentration resulting in 50% death of cells
Each record here notes measured CC50 at 72 h.
Please respond with the number in µM and leave the unit unwritten.

Sample answers from the record:
CCc1nnc(S)n1NCC#Cc1ccccc1 : 487
CCc1nnc2n1N=CC=C(c1ccccc1)S2 : 6.1
Sc1nncn1N=CC#Cc1ccccc1 : 134

Fill in the blank: the reported CC50 at 72 h of CCc1nnc(S)n1N=CC#Cc1ccccc1 is ____. 119

Subsequent entry: CCc1nnc2n1NCC=C(c1ccccc1)S2 [Compound 10c] 972

Subsequent entry: C1=Nn2cnnc2SC(c2ccccc2)=C1 42.9

Subsequent entry: Cc1nnc(S)n1N=CC#Cc1ccccc1 126

---

experiment: Cytotoxicity, methyltetrazolium (MTT) assay on MDCK cell monolayer; format: cell-based; conditions: dog; MDCK cells, 72 h, MTT; read-out: CC50, cytotoxic concentration; the concentration resulting in 50% death of cells
VALUE KIND: CC50 at 72 h

Fill in the blank: the reported CC50 at 72 h of CCCc1nnc2n1NC/C(=C/c1ccccc1)S2 is ____. > 1100 µM

Subsequent entry: CCC(CC)O[C@@H]1C=C(C(=O)O)C[C@H](N)[C@H]1NC(C)=O [Oseltamivir carboxylate, reference compound] > 100 µM

Subsequent entry: C1=C(c2ccccc2)Sc2nncn2NC1 [Compound 10a] > 1300 µM
